Test details: Aqueous solubility of guests and solubilization by γ-CD thioethers
Assay type: physicochemical
Assay conditions: water with Na2SO4, thermodynamic from solid, [Na2SO4] 1.5 M, read-out: [COU]0 solubility of COU

Compound structure string: O=c1ccc2ccccc2o1
Readout unit: µM
solubility at 72 h: 2600

----------
Test details: Aqueous solubility of guests and solubilization by γ-CD thioethers
Type: physicochemical
Assay conditions: water with Na2SO4, thermodynamic from solid, [Na2SO4] 1.0 M, read-out: [COU]0 solubility of COU
Property name: solubility at 72 h (mM)

Compound structure string: O=c1ccc2ccccc2o1
Reading: 4.7

Values were extracted from paper PMC3778407.
